Assay: Equilibrium solubility of vitamin A in supercritical CO2 (static cell, UV-VIS)
Assay type: physicochemical
Settings: SC-CO2, 313 K, 245 bar
ASSAY_METRIC: Mole fraction
Simply state the number, no unit and no words.

Consider CC1=C(/C=C/C(C)=C/C=C/C(C)=C/CO)C(C)(C)CCC1 . Its measured Mole fraction is 0.000149

* * *

Assay: Equilibrium solubility of vitamin A in supercritical CO2 (static cell, UV-VIS)
Assay type: physicochemical
Settings: SC-CO2, 323 K, 195 bar
ASSAY_METRIC: Mole fraction
Simply state the number, no unit and no words.

Consider CC1=C(/C=C/C(C)=C/C=C/C(C)=C/CO)C(C)(C)CCC1 . Its measured Mole fraction is 0.000148
